All values here come from the SangsterLogP compilation.

Field: label. Allowed values: label 1 (logP < 2) or label 0 (logP >= 2).

Q: Hello, I'm reviewing records and need to know if logP of NC(=O)c1c(Cl)cccc1Br is below 2. Could you check?
Result: label 1

Q: Below 2 on logP? Entry COc1ccc(NC(C)=O)c([N+](=O)[O-])c1
Result: label 1

Q: Please state whether logP is below 2 for COc1cccc(NC(C)=O)c1C
Result: label 1

Q: Dear colleague, could you confirm whether logP of CC(=O)Nc1c(C(C)C)cccc1C(C)C falls below 2? Thanks.
Result: label 0

Q: Is the reported logP for CC(=O)Nc1c(C)cc(C)cc1[N+](=O)[O-] strictly below 2?
Result: label 1

Q: Below 2 on logP? Entry CC(=O)Nc1cc(Cl)c(F)c(Cl)c1F
Result: label 0

Q: Is it true that logP reported for CC(=O)Nc1cccc(Cl)c1C is less than 2?
Result: label 1

Q: API: query returns whether the compound falls strictly under 2 in logP. Query: Cc1cccc(Cl)c1C(N)=O
Result: label 1

Q: Determine whether this compound shows logP lower than 2 (ties excluded): O=[N+]([O-])c1cc(C(F)(F)F)cc([N+](=O)[O-])c1Cl
Result: label 0

Q: Report whether reported logP is lower than 2 (strictly) for NC(=O)c1c(F)cccc1Cl
Result: label 1

Q: Please check: logP for COc1cccc(Cl)c1C(N)=O , strictly under 2 or not?
Result: label 1

Q: Find out if reported logP for COc1ccc(OC)c(Cl)c1 is less than 2
Result: label 0

Q: Confirm or reject: logP of CC(=O)Nc1cc(Cl)c(Cl)c(Cl)c1 lies strictly below 2
Result: label 0

Q: Answer whether the compound CCc1ccccc1C(N)=O has logP strictly less than 2
Result: label 1

Q: # check: logP < 2 for CC(=O)Nc1ccccc1I
Result: label 1

Q: Lab note: confirm whether the reported logP for this compound is below 2, equality not counting. compound: CC(=O)Nc1cc(Cl)ccc1C
Result: label 1

Q: Does this compound meet the criterion logP < 2? CC(=O)Nc1cc(Cl)cc(Cl)c1
Result: label 0

Q: A record lists CC(=O)Nc1cccc(Cl)c1Cl . Is its logP below 2?
Result: label 0

Q: Find out if reported logP for NC(=O)c1c(F)cccc1Br is less than 2
Result: label 1

Q: For this compound, is logP lower than 2? NC(=O)c1ccccc1C(F)(F)F
Result: label 1

Q: Does the reported logP of the following compound sit strictly below 2? CC(=O)Nc1cc(C(F)(F)F)c(Cl)cc1Cl
Result: label 0

Q: hey, is logP for Cc1ccccc1C(N)=O lower than 2 or not?
Result: label 1
